Reported ELISA signal relative to background by item:
target: T1, FX activation peptide 12-mer SSGEAPDSITWK (human); test: peptide ELISA
T1 peptide: SSGEAPDSITWK-biotin
Ends that are not written are not given here.

[
  {
    "BINDER": "Nb 729C08 (VHH, monovalent Nanobody; also called Nb 729008; not shown: C-terminal FLAG3 and HIS6 tag) VHH: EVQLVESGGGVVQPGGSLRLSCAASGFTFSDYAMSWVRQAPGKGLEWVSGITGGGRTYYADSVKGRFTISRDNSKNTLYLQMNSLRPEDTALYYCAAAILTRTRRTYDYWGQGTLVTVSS",
    "ELISA signal relative to background": 1.06
  },
  {
    "BINDER": "Nb 701B09 (VHH, monovalent Nanobody; also called Nb 701609; not shown: C-terminal FLAG3 and HIS6 tag) VHH: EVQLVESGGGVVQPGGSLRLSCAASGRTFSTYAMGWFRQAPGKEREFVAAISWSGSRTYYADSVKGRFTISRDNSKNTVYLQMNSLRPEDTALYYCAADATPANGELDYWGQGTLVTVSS",
    "ELISA signal relative to background": 0.89
  },
  {
    "BINDER": "Nb 729A04 (VHH, monovalent Nanobody; not shown: C-terminal FLAG3 and HIS6 tag) VHH: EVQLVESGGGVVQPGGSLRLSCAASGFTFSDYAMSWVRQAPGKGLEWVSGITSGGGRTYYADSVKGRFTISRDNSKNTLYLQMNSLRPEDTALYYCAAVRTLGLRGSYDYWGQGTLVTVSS",
    "ELISA signal relative to background": 0.96
  },
  {
    "BINDER": "Nb 701C06 (VHH, monovalent Nanobody; not shown: C-terminal FLAG3 and HIS6 tag) VHH: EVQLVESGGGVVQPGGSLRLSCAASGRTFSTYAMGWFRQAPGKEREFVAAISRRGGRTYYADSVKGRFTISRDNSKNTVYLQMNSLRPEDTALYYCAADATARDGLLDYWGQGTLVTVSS",
    "ELISA signal relative to background": 0.89
  }
]
